methodSummary: Rat pharmacokinetic study of DZ2002
Format: in vivo, Sprague-Dawley rats
setupConditions: male, Sprague-Dawley, rat, blood, po, 10 mg/kg
parameterMeasured: AUC(0-t) (µM·h)
Give the value in µM·h but do not write µM·h after it.

COC(=O)[C@@H](O)CCn1cnc2c(N)ncnc21 [DZ2002] | 1.41

*Q* May I ask what AUC(0-t) has been recorded for Nc1ncnc2c1ncn2CCC(O)C(=O)O (centres unmarked) [DZA] ?
*A* 6.71

====

methodSummary: Rat pharmacokinetic study of DZ2002
Format: in vivo, Sprague-Dawley rats
setupConditions: female, Sprague-Dawley, rat, blood, po, 25 mg/kg
parameterMeasured: half-life (h)
Express the result in h but write the number alone.

*Q* // lookup half-life for COC(=O)[C@@H](O)CCn1cnc2c(N)ncnc21
*A* 0.71

*Q* half-life lookup needed for Nc1ncnc2c1ncn2CCC(O)C(=O)O (centres unmarked) , thanks.
*A* 5.09

Values were extracted from paper PMC6355468.
